The entries below come with measured IC50 values attached.
assayed system: NR1/NR2C (Rattus norvegicus, UniProt P35439+Q00961)
Sequence (Q00961 20-1237, other chains not shown): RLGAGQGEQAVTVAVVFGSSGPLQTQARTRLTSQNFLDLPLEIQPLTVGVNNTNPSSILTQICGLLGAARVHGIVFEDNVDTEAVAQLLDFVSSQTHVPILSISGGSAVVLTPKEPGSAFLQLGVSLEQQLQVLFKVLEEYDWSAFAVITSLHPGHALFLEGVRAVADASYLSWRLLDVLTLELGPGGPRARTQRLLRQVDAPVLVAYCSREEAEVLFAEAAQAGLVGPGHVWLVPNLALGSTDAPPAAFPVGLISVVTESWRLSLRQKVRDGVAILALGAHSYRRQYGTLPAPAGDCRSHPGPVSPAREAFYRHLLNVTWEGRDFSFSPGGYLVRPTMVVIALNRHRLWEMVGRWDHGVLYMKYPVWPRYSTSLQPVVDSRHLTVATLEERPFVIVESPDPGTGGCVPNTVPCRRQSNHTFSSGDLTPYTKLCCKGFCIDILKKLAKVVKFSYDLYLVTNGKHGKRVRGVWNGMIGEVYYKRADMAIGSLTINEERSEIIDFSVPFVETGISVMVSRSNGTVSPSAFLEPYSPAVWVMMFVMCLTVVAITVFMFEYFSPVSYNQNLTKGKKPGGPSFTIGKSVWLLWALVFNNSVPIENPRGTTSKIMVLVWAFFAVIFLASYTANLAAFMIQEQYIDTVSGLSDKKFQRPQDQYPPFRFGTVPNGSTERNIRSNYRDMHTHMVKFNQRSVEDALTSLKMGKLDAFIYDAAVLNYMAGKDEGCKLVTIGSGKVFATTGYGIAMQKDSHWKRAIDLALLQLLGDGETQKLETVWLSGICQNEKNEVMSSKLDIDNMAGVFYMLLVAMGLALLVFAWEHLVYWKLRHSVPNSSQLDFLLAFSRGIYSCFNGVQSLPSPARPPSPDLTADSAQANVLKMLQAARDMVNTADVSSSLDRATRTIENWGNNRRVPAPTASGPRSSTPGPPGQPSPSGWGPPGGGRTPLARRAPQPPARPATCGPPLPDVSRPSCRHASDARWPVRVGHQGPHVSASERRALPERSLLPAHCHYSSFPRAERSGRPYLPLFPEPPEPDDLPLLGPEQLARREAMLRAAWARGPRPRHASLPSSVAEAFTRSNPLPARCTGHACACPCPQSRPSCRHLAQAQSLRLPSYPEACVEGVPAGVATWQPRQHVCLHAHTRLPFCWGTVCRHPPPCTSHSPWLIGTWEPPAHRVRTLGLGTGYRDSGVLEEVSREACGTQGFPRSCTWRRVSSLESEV
procedure details: Two-electrode voltage-clamp, recombinant NR1/NR2C in Xenopus oocytes
Numeric answer only, unit µM assumed.

# count of solved cases: 3
[
  {
    "smiles notation": "COc1cccc(/C=C/c2nc3ccccc3c(=O)n2-c2ccc(C(=O)O)cc2)c1",
    "IC50 / µM": 17
  },
  {
    "smiles notation": "COc1ccccc1/C=C/c1nc2ccccc2c(=O)n1-c1ccc(C(=O)O)cc1",
    "IC50 / µM": 32
  },
  {
    "smiles notation": "COc1ccc2nc(/C=C/c3ccc(OC(C)=O)c(OC(C)=O)c3)n(-c3ccc(C(=O)O)cc3)c(=O)c2c1",
    "IC50 / µM": 124
  }
]

Note: attention shifts to another entry.
Please give the measured IC50 for this molecule: O=C(O)c1ccc(-n2c(/C=C/c3cccc(C(F)(F)F)c3)nc3ccccc3c2=O)cc1
8

====

assayed system: NR1/NR2D (Rattus norvegicus, UniProt P35439+Q62645)
Sequence (Q62645 28-1323, other chains not shown): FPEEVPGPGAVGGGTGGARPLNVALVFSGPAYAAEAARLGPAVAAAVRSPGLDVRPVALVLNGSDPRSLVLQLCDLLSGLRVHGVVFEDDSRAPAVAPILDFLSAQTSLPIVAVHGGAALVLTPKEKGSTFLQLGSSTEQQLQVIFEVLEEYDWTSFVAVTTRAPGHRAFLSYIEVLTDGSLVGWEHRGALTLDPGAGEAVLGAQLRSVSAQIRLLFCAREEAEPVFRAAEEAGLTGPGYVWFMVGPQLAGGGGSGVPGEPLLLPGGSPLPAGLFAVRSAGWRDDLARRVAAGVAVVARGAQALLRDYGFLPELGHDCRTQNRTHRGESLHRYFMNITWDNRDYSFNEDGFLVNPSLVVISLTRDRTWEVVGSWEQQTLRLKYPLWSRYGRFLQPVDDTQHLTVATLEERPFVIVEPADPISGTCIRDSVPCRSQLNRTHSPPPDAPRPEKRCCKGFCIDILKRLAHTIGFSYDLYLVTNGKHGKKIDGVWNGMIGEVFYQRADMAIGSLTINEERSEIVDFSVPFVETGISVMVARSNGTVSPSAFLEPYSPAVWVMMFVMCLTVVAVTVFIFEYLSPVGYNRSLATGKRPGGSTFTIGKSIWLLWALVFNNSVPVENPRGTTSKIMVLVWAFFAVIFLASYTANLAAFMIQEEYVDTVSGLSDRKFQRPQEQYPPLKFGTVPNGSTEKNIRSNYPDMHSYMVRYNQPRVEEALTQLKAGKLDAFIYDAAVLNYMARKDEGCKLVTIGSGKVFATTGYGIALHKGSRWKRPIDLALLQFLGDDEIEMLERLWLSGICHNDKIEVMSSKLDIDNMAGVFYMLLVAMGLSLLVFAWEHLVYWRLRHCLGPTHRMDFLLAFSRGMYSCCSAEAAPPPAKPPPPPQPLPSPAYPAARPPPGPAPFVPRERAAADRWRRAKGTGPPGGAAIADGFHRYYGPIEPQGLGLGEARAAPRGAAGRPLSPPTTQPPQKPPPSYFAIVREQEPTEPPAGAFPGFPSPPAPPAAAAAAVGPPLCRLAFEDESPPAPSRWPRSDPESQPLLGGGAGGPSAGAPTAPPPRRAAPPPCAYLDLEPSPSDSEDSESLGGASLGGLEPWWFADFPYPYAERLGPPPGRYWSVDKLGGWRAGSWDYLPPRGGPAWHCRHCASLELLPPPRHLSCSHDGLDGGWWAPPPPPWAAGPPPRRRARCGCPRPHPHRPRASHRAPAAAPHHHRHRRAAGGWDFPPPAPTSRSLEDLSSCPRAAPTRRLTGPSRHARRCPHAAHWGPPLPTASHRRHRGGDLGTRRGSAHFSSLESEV
procedure details: Two-electrode voltage-clamp, recombinant NR1/NR2D in Xenopus oocytes
Type: cell-based
experimental setup: selectivity ratio
readout kind: GluR1/NR2D: (IC50 GluR1)/(IC50 NR2D)

[
  {
    "compound": "Cc1cccc(/C=C/c2nc3ccccc3c(=O)n2-c2ccc(C(=O)O)cc2)c1 [Compound 34]",
    "value reported": ">16"
  },
  {
    "compound": "COc1ccc2nc(/C=C/c3ccc(OC(C)=O)c(OC(C)=O)c3)n(-c3ccc(C(=O)O)cc3)c(=O)c2c1 [Compound 64]",
    "value reported": ">6"
  },
  {
    "compound": "COc1ccc2nc(/C=C/c3ccc([N+](=O)[O-])cc3)n(-c3cccc(C(=O)O)c3)c(=O)c2c1 [Compound 76]",
    "value reported": ">19"
  }
]

Turning to the following compound.
Item O=C(O)c1cccc(-n2c(/C=C/c3ccc([N+](=O)[O-])cc3)nc3ccc(I)cc3c2=O)c1 [Compound 73] has what recorded GluR1/NR2D: (IC50 GluR1)/(IC50 NR2D)?
>37

====

Entries and their NR2A/NR2D: (IC50 NR2A)/(IC50 NR2D) values follow.
assayed system: NR1/NR2D (Rattus norvegicus, UniProt P35439+Q62645)
procedure details: Two-electrode voltage-clamp, recombinant NR1/NR2D in Xenopus oocytes
Assay type: cell-based
experimental setup: selectivity ratio

API: value(readout= NR2A/NR2D: (IC50 NR2A)/(IC50 NR2D), system= NR1/NR2D (Rattus norvegicus, UniProt P35439+Q62645), query= O=C(O)c1ccc(-n2c(/C=C/c3ccc4c(c3)OCCO4)nc3ccccc3c2=O)cc1 )
>18

Given the entry COc1ccc2nc(/C=C/c3cccc(C(=O)O)c3)n(-c3ccc(C(=O)O)cc3)c(=O)c2c1 , what NR2A/NR2D: (IC50 NR2A)/(IC50 NR2D) was observed with NR1/NR2D (Rattus norvegicus, UniProt P35439+Q62645)?
>2

// map O=C(O)c1cccc(-n2c(/C=C/c3ccc([N+](=O)[O-])cc3)nc3ccc(I)cc3c2=O)c1 to recorded NR2A/NR2D: (IC50 NR2A)/(IC50 NR2D) (system: NR1/NR2D (Rattus norvegicus, UniProt P35439+Q62645))
>37
